Target: gastrin (CCK2) receptors (Rattus norvegicus)
Construct: The stomach was excised and flushed with ca. 1 ml of unbuffered physiological saline solution; from tissue; host or cells: isolated whole stomach of immature rats (ca. 21 days old)
Sequence (P30553 whole entry): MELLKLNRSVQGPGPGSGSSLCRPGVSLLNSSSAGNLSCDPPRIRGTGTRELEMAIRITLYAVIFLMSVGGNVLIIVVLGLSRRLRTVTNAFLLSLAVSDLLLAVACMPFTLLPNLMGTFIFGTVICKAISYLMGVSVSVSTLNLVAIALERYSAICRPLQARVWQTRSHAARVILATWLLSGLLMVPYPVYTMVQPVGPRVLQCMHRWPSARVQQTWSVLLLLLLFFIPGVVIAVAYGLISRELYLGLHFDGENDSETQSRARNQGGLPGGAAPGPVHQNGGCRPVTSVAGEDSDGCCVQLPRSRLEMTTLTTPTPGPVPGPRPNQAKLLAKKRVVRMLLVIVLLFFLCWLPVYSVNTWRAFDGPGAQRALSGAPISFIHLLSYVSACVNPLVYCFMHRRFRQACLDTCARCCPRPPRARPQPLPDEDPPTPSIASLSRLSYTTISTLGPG
Assay: gastrin (CCK2) antagonist activity in an immature rat stomach assay
Settings: pentagastrin dose-response curves, acid secretion, read-out: pKB rat stomach (converted)
// reported log10(Kb) for each item listed
property.label: log10(Kb) (log10 of the value in nM)

input_smiles=O=C(O)Cn1ccc2ccc(NC(=O)CN3N=C(C4CCCCC4)c4ccccc4N(CC(=O)C4CCCC4)C3=O)cc21 property_label=log10(Kb) reading=-1.24
input_smiles=CC(C)(C)C(=O)CN1C(=O)N(CC(=O)Nc2cccc(-c3nn[nH]n3)c2)N=C(C2CCCC2)c2ccccc21 property_label=log10(Kb) reading=1.95
input_smiles=CC(C)(C)C(=O)CN1C(=O)N(CC(=O)Nc2cccc(C(=O)O)c2)N=C(C2CCCCC2)c2c(F)cccc21 property_label=log10(Kb) reading=0.78
input_smiles=CC(C)(C)C(=O)CN1C(=O)N(CC(=O)Nc2ccc3ccn(Cc4nnn[nH]4)c3c2)N=C(C2CCCCC2)c2ccccc21 property_label=log10(Kb) reading=0.21
input_smiles=COC(=O)c1cccc(NC(=O)CN2N=C(C3CCCCC3)c3ccccc3N(CC(=O)C(C)(C)C)C2=O)c1 property_label=log10(Kb) reading=0.45
input_smiles=O=C(O)CCCc1cccc(NC(=O)CN2N=C(C3CCCCC3)c3ccccc3N(CC(=O)C3CCCC3)C2=O)c1 property_label=log10(Kb) reading=0.10
input_smiles=CC(C)(C)C(=O)CN1C(=O)N(CC(=O)Nc2cccc3nn(CC(=O)O)cc23)N=C(C2CCCCC2)c2ccccc21 property_label=log10(Kb) reading=1.19
input_smiles=COc1ccc(NC(=O)CN2N=C(C3CCCCC3)c3ccccc3N(CC(=O)C(C)(C)C)C2=O)cc1 property_label=log10(Kb) reading=1.89
input_smiles=CC1(C(=O)CN2C(=O)N(CC(=O)Nc3cccc(C(=O)O)c3)N=C(C3CCCCC3)c3ccccc32)CCCC1 property_label=log10(Kb) reading=1.07
input_smiles=CC1(C(=O)CN2C(=O)N(CC(=O)Nc3cccc(CC(=O)O)c3)N=C(C3CCCCC3)c3ccccc32)CCCCC1 property_label=log10(Kb) reading=1.15
input_smiles=CC(C)(C)C(=O)CN1C(=O)N(CC(=O)Nc2cccc(CCC(=O)O)c2)N=C(C2CCCCC2)c2ccccc21 property_label=log10(Kb) reading=0.65
input_smiles=CC(C)(C)C(=O)CN1C(=O)N(CC(=O)Nc2cccc(-c3ccc(C(=O)O)o3)c2)N=C(C2CCCCC2)c2ccccc21 property_label=log10(Kb) reading=0.53
input_smiles=CC(C)(C)C(=O)CN1C(=O)N(CC(=O)Nc2cccc(C(=O)O)c2)N=C(C2CCCCC2)c2ccccc21 property_label=log10(Kb) reading=-0.18
input_smiles=CN(c1cccc(NC(=O)CN2N=C(C3CCCCC3)c3ccccc3N(CC(=O)C3CCCC3)C2=O)c1)c1nnn[nH]1 property_label=log10(Kb) reading=0.33
input_smiles=CC(C)(C)C(=O)CN1C(=O)N(CC(=O)Nc2ccc3c(ccn3CC(=O)O)c2)N=C(C2CCCCC2)c2ccccc21 property_label=log10(Kb) reading=1.44
input_smiles=CC(C)(C)C(=O)CN1C(=O)N(CC(=O)Nc2cccc(-c3cccc(C(=O)O)c3)c2)N=C(C2CCCCC2)c2ccccc21 property_label=log10(Kb) reading=1.06
input_smiles=O=C(O)Cc1cccc(NC(=O)CN2N=C(C3CCCCC3)c3ccccc3N(CC(=O)C3CCCCC3)C2=O)c1 property_label=log10(Kb) reading=0.53
input_smiles=CNc1cccc(NC(=O)CN2N=C(c3ccccn3)c3ccccc3N(CC(=O)N3CCCC3)C2=O)c1 property_label=log10(Kb) reading=3.02
input_smiles=O=C(CN1N=C(C2CCCCC2)c2ccccc2N(CC(=O)N2CCOCC2)C1=O)Nc1cccc(C(=O)O)c1 property_label=log10(Kb) reading=1.91
input_smiles=CC(=O)N(CC(=O)O)c1cccc(NC(=O)CN2N=C(C3CCCCC3)c3ccccc3N(CC(=O)C(C)(C)C)C2=O)c1 property_label=log10(Kb) reading=1.72
input_smiles=Cc1cccc2c1C(C1CCCCC1)=NN(CC(=O)Nc1cccc(CC(=O)O)c1)C(=O)N2CC(=O)C(C)(C)C property_label=log10(Kb) reading=1.82
input_smiles=O=C(O)CSc1cccc(NC(=O)CN2N=C(C3CCCCC3)c3ccccc3N(CC(=O)C3CCCCC3)C2=O)c1 property_label=log10(Kb) reading=-0.24
input_smiles=Cc1ccc2c(c1)N(CC(=O)C(C)(C)C)C(=O)N(CC(=O)Nc1cccc(C(=O)O)c1)N=C2C1CCCCC1 property_label=log10(Kb) reading=1.61
input_smiles=O=C(O)Cc1cccc(NC(=O)CN2N=C(C3CCCCC3)c3ccccc3N(CC(=O)C3CCCC3)C2=O)c1 property_label=log10(Kb) reading=-0.13
input_smiles=O=C(CN1N=C(C2CCCCC2)c2ccccc2N(CC(=O)C2CCCC2)C1=O)Nc1cccc(-c2nc(C(=O)O)co2)c1 property_label=log10(Kb) reading=0.59
input_smiles=CNc1cccc(NC(=O)CN2N=C(CC(C)C)c3ccccc3N(CC(=O)C(C)(C)C)C2=O)c1 property_label=log10(Kb) reading=1.71
input_smiles=CNc1cc(NC(=O)CN2N=C(C3CCCCC3)c3ccccc3N(CC(=O)C(C)(C)C)C2=O)cc(C(=O)O)c1 property_label=log10(Kb) reading=1.83
input_smiles=CC(C)(C)OC(=O)CN1C(=O)N(CC(=O)Nc2cccc(C(=O)O)c2)N=C(C2CCCCC2)c2ccccc21 property_label=log10(Kb) reading=0.60
